compounds and their reported activity (Tm shift, normalised)
- Subject Of Test: Fibroblast growth factor 22 (Homo sapiens)
- Assay Method Text: binders of human FGF22 protein, primary screen, FGF22 synaptogenesis inhibitor project, biophysical, thermal shift, single point (AID 651658)
- Condition Context: recombinant FGF22 thermal shift, SYPRO orange fluorescence; at 9.99 µM; hits give high values; percent of sucrose octasulfate shift, DMSO zero
The whole screen tested about 340,000 compounds, of which about 5,100 (1.5%) were called active. Shown is part of a subset that was picked to be rich in actives.
Report only the number, with the unit % understood.

Look over these answered cases.
Compound	Parameter Measured	Reading
Cc1cccc(CN2CCN(C3CN(Cc4cn(Cc5cc(C)cc(C)c5)nn4)S(=O)(=O)C3)CC2)c1 (configuration not stated)	activity (Tm shift, normalised)	-0.326
C[C@@H]1CN([C@H](C)CO)C(=O)c2cc(NC(=O)Cc3ccccc3)ccc2O[C@@H](C)CCCCO[C@@H]1CN(C)Cc1ccncc1	activity (Tm shift, normalised)	-0.393
CC(=O)Cc1nsc(NC(=O)c2ccc(Cl)cc2Cl)n1	activity (Tm shift, normalised)	44.2
COc1ccc(CN(C)C[C@H]2OCCCC[C@@H](C)Oc3ccc(NS(=O)(=O)c4ccccc4)cc3C(=O)N([C@@H](C)CO)C[C@@H]2C)cc1	activity (Tm shift, normalised)	0.068
COc1ccc(NC(=O)N(C)C[C@H]2OCCCC[C@H](C)Oc3ccc(NC(=O)c4ccncc4)cc3C(=O)N([C@H](C)CO)C[C@@H]2C)cc1	activity (Tm shift, normalised)	-0.473
COc1ccc2c3c(n(C)c2c1)[C@H](CO)N(C)CC31CCN(C(=O)Nc2cccc(F)c2)CC1	activity (Tm shift, normalised)	0.13
COc1cccc(CNC(=O)C[C@@H]2CC[C@H]3[C@@H](COc4ccc(NC(=O)c5cccs5)cc4C(=O)N3C)O2)c1	activity (Tm shift, normalised)	0.125
Cc1ccc(S(=O)(=O)N(C)C[C@@H]2OCCCC[C@@H](C)Oc3ccc(NS(=O)(=O)c4ccc(F)cc4)cc3C(=O)N([C@H](C)CO)C[C@H]2C)cc1	activity (Tm shift, normalised)	-0.311
COC(=O)Cc1c(-c2[nH]c3ccccc3c2CC(=O)OC)[nH]c2ccccc12	activity (Tm shift, normalised)	-0.112
C[C@H]1CCCCO[C@@H](CN(C)C(=O)Cc2ccccc2)[C@@H](C)CN([C@@H](C)CO)C(=O)c2cc(NC(=O)c3ccccc3)ccc2O1	activity (Tm shift, normalised)	-0.058

What the record says about `CCCC#Cc1cnc2c(c1)C(=O)N([C@H](C)CO)C[C@H](C)[C@H](CN(C)C(=O)c1cnccn1)O2` : activity (Tm shift, normalised) is -0.197

What the record says about `COc1ccc(Cn2c(-c3ccc(Cl)cc3)c[n+]3ccccc23)cc1` : activity (Tm shift, normalised) is 44

What the record says about `C[C@@H]1CCCCO[C@H](CN(C)Cc2ccccc2)[C@@H](C)CN([C@H](C)CO)C(=O)c2cc(NC(=O)Cc3ccccc3)ccc2O1` : activity (Tm shift, normalised) is 0.467

----------
compounds and their reported activity (Tm shift, normalised)
- Subject Of Test: Fibroblast growth factor 22 (Homo sapiens) (UniProt Q9HCT0)
- Sequence (Q9HCT0 whole entry, looked up): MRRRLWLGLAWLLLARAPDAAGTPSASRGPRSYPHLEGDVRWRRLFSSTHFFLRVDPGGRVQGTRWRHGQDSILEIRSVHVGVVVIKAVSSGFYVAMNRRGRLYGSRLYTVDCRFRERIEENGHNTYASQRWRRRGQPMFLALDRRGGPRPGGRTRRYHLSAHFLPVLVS
- Assay Method Text: binders of human FGF22 protein, primary screen, FGF22 synaptogenesis inhibitor project, biophysical, thermal shift, single point (AID 651658)
- Condition Context: recombinant FGF22 thermal shift, SYPRO orange fluorescence; at 9.99 µM; hits give high values; percent of sucrose octasulfate shift, DMSO zero
Out of some 340,000 compounds screened, about 5,100 (1.5%) were called active. This excerpt belongs to a sample that is enriched for actives.

Look over these answered cases.
Smiles Code	Subject Of Test	activity (Tm shift, normalised)
CCCNC(=O)N1CC2(CCN(C(=O)C3CC3)CC2)c2c([nH]c3cc(OC)ccc23)[C@H]1CO	Fibroblast growth factor 22 (Homo sapiens) (UniProt Q9HCT0)	-0.002% (inactive)
CC(C)NC(=O)N(C)C[C@H]1OCCCC[C@H](C)Oc2ccc(NC(=O)CCC(F)(F)F)cc2C(=O)N([C@@H](C)CO)C[C@@H]1C	Fibroblast growth factor 22 (Homo sapiens) (UniProt Q9HCT0)	-0.59% (inactive)
Fc1ccc(/C=N/n2c(COc3ccccc3)n[nH]c2=S)cc1	Fibroblast growth factor 22 (Homo sapiens) (UniProt Q9HCT0)	0.702% (inactive)
CNS(=O)(=O)c1ccc(NC(=O)Nc2ccc3c(c2)OCO3)cc1	Fibroblast growth factor 22 (Homo sapiens) (UniProt Q9HCT0)	-0.016% (inactive)
O=C(C1CCCC1)N1[C@H](CO)[C@@H]2c3ccccc3N(S(=O)(=O)c3ccccc3)C[C@@H]21	Fibroblast growth factor 22 (Homo sapiens) (UniProt Q9HCT0)	0.581% (inactive)
Cc1ccccc1-c1ccc2c(c1)O[C@H](CN(C)C)[C@H](C)CN([C@@H](C)CO)S2(=O)=O	Fibroblast growth factor 22 (Homo sapiens) (UniProt Q9HCT0)	0.074% (inactive)
Cc1ccc(S(=O)(=O)N[C@H]2CC[C@H](CC(=O)O)O[C@H]2CO)cc1	Fibroblast growth factor 22 (Homo sapiens) (UniProt Q9HCT0)	0.52% (inactive)
C[C@@H]1CCCCO[C@@H](CN(C)Cc2ccncc2)[C@@H](C)CN([C@@H](C)CO)C(=O)c2cc(NC(=O)Nc3ccc(F)cc3)ccc2O1	Fibroblast growth factor 22 (Homo sapiens) (UniProt Q9HCT0)	-0.232% (inactive)

For the next question, use this compound.
# `Cc1cccc(NC(=O)Nc2ccc3c(c2)OCO3)n1` with Fibroblast growth factor 22 (Homo sapiens) (UniProt Q9HCT0): activity (Tm shift, normalised) is 43.6% (active)

----------
- Subject Of Test: Fibroblast growth factor 22 (Homo sapiens)
- Assay Method Text: binders of human FGF22 protein, primary screen, FGF22 synaptogenesis inhibitor project, biophysical, thermal shift, single point (AID 651658)
- Condition Context: recombinant FGF22 thermal shift, SYPRO orange fluorescence; at 9.99 µM; percent of sucrose octasulfate shift, DMSO zero
About 5,100 (1.5%) of roughly 340,000 compounds were called active.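 Rule for the calls: active = mean Tm shift, scaled 0 neutral to 100 positive control, at about 1.3% or above, every replicate too (limit read from the data); inconclusive = no clear call, values can overlap the other calls; inactive = the rest.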 For the sample, actives were picked, then their nearest neighbours and some compounds at random.
Assign a class; possible classes are 1.0 = active, 0.0 = inactive

As a guide, the following entries are already answered.
Compound	Class Assignment
Cc1c(-c2ccccc2)n[nH]c1C(=O)N=Nc1c(O)[nH]c2ccccc12	0.0
CO[C@@H]1CN(C)C(=O)c2cc(NC(=O)CC(F)(F)F)ccc2OC[C@H](C)N(S(=O)(=O)c2cn(C)cn2)C[C@H]1C	0.0
CC(C)CC#Cc1cnc2c(c1)C(=O)N([C@@H](C)CO)C[C@H](C)[C@@H](CN(C)C(=O)c1cccc(F)c1)O2	0.0
CC(C)NC(=O)N1CC2(C1)[C@H](c1ccccc1)[C@H](CO)N2C(=O)C1CCOCC1	0.0
CN(C)C(=O)C[C@H]1C[C@@H]2c3cc(NC(=O)CC4CC4)ccc3O[C@@H]2[C@@H](CO)O1	0.0
O=C(C[C@H]1C[C@H]2c3cc(NC(=O)Nc4ccc(C(F)(F)F)cc4)ccc3O[C@H]2[C@@H](CO)O1)NCCc1ccccc1	0.0
O=C(C[C@H]1CC[C@H]2[C@@H](COC[C@H](O)CN2Cc2ccncc2)O1)NCC1CC1	0.0
O=C(Nc1cc(F)ccc1F)N1C[C@H]2[C@@H](c3ccccc31)[C@@H](CO)N2C(=O)c1ccccc1	0.0
Cc1cc(C)n(-c2ccc(C(=O)O)cc2[N+](=O)[O-])n1	1.0
O=C(Cc1cccs1)N/N=C/c1ccc(OCc2ccccc2)cc1	0.0

Attention now turns to another entry.
# outcome recorded in this test, key = `COc1ccc([Si](C)(C)[C@@H]2[C@@H](CCO)O[C@]3(C(=O)N(Cc4ccccc4)c4ccc(N5CCC5=O)cc43)[C@H]2C)cc1` 0.0

----------
- Subject Of Test: Fibroblast growth factor 22 (Homo sapiens) (UniProt Q9HCT0)
- Assay Method Text: binders of human FGF22 protein, primary screen, FGF22 synaptogenesis inhibitor project, biophysical, thermal shift, single point (AID 651658)
- Condition Context: recombinant FGF22 thermal shift, SYPRO orange fluorescence; at 9.99 µM; hits give high values; percent of sucrose octasulfate shift, DMSO zero
Among all 340,000 compounds or so, about 5,100 (1.5%) were called active. The full list was thinned out, with actives kept by preference.
compounds and their reported activity (Tm shift, normalised)

Compound	Subject Of Test	activity (Tm shift, normalised)
O=C(CC(=O)N/N=C\c1ccc(F)cc1)NCCc1ccccc1	Fibroblast growth factor 22 (Homo sapiens) (UniProt Q9HCT0)	0.292% (inactive)

# `CCC(=O)Nc1ccc2c(c1)C(=O)N(C)[C@@H]1CC[C@@H](CC(=O)NCc3ccccc3Cl)O[C@H]1CO2` with Fibroblast growth factor 22 (Homo sapiens) (UniProt Q9HCT0): activity (Tm shift, normalised) is -0.111% (inactive)

# `COc1cccc(S(=O)(=O)N2CCC3(CC2)CN[C@H](CO)c2c3c3ccc(OC)cc3n2C)c1` with Fibroblast growth factor 22 (Homo sapiens) (UniProt Q9HCT0): activity (Tm shift, normalised) is 0.197% (inactive)

# `CO[C@H]1CN(C)C(=O)c2cc(NC(=O)C3CCC3)ccc2OC[C@H](C)N(CC2CCCCC2)C[C@@H]1C` with Fibroblast growth factor 22 (Homo sapiens) (UniProt Q9HCT0): activity (Tm shift, normalised) is 0.141% (inactive)
